What Ratio was measured for each of the following?
# METHOD SUMMARY: Binding affinity to Gallium ion assessed as retention ratio by measuring compound detected in elution fraction/total compound detected at 2.55 umol by immobilized metal-ion affinity chromatography
# CONDITION DETAILS: dose 2.55 µmol
Numbers only.

Completed entries (count: 5):
In [3]: df
Out[3]:
                              smiles_string  measured_value
0  CC1(C)Cc2c(-c3ccccc3)c(-c3ccc(Cl)cc3)c(CC(=O)O)n2C1            0.06
1               O=C(CCCCCCC(=O)Nc1ccccc1)NO               1
2  O=C(O)c1cc(/N=N/c2ccc(S(=O)(=O)Nc3ccccn3)cc2)ccc1O            0.99
3  O=C(/C=C/c1cccc(S(=O)(=O)Nc2ccccc2)c1)NO               1
4                              O=c1cccccc1O               0

Quick batch: Ratio for everything below.
1. C[C@H](CS)C(=O)N1CCC[C@H]1C(=O)O
2. CC(=O)Nc1ccc(C(=O)Nc2ccccc2N)cc1
3. NCCCC[C@H](N[C@@H](CCc1ccccc1)C(=O)O)C(=O)N1CCC[C@H]1C(=O)O

Result:
0
0
0

---

# METHOD SUMMARY: Binding affinity to Zinc ion assessed as performance ratio ratio by measuring product of accounting ratio and retention ratio at 2.55 umol by immobilized metal-ion affinity chromatography
# CONDITION DETAILS: dose 2.55 µmol
What Ratio was measured for each of the following?
One number for each entry.

>>> print(df.to_string())
                              smiles_string  property  measured_value
0  Nc1ccccc1NC(=O)c1ccc(CNC(=O)OCc2cccnc2)cc1     Ratio            0.01

Quick batch: Ratio for everything below.
1. C[C@H](CSC(=O)c1ccccc1)C(=O)N1C[C@@H](Sc2ccccc2)C[C@H]1C(=O)O
2. C[C@H](N[C@@H](CCc1ccccc1)C(=O)O)C(=O)N1CCC[C@H]1C(=O)O

Result:
0.01
0.01

---

# METHOD SUMMARY: Binding affinity to Nickel cation assessed as accounting ratio by measuring total compound detected/total compound adsorbed at 2.55 umol by immobilized metal-ion affinity chromatography
# CONDITION DETAILS: dose 2.55 µmol
Classification by Ratio follows these ranges: low-valued = under 0.3, mid-valued = from 0.3 up to 0.9, high-valued = 0.9 and over

Reference set, count: 3
>>> df
                              smiles_string  assigned_class
0  O=C(N[C@H]1CCS[C@H]2CCC[C@@H](C(=O)O)N2C1=O)[C@@H](S)Cc1ccccc1      low-valued
1                              O=c1cccccc1O      mid-valued
2  CC1(C)Cc2c(-c3ccccc3)c(-c3ccc(Cl)cc3)c(CC(=O)O)n2C1     high-valued

Ask: Band of "C[C@H](CSC(=O)c1ccccc1)C(=O)N1C[C@@H](Sc2ccccc2)C[C@H]1C(=O)O" ?
Result: high-valued

Ask: Band of "Nc1ccccc1NC(=O)c1ccc(CNC(=O)OCc2cccnc2)cc1" ?
Result: mid-valued

Ask: Band of "Cc1[nH]c2ccccc2c1CCNCc1ccc(/C=C/C(=O)NO)cc1" ?
Result: mid-valued

Ask: Band of "NCCCC[C@H](N[C@@H](CCc1ccccc1)C(=O)O)C(=O)N1CCC[C@H]1C(=O)O" ?
Result: mid-valued

Ask: Band of "C[C@H](CS)C(=O)N1CCC[C@H]1C(=O)O" ?
Result: low-valued
